- Tested on: BACE1 (Homo sapiens (Human), UniProt P56817)
- Assay procedure: In vitro enzymatic BACE1 FRET assay
- Type: biochemical
- Applied conditions: read-out: BACE1 Enzyme IC50
- Sequence (P56817 46-501): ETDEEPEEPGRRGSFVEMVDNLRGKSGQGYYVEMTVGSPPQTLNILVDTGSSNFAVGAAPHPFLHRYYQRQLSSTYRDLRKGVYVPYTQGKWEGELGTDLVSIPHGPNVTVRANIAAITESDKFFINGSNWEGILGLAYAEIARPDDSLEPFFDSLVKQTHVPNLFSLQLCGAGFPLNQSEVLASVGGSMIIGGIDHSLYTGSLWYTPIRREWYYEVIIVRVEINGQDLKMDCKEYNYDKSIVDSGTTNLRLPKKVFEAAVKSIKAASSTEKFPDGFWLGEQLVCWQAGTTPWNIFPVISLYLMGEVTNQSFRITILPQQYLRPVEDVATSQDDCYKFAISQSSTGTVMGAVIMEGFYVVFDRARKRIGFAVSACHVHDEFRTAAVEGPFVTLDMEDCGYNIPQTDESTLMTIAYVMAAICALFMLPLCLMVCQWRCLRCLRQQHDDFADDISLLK
Test readout: IC50 (nM)

Illustrative cases are given below, each with its answer.
{"Compound": "C[C@]1(c2cc(/C=C(\\F)c3cnc(OCC4CCC4)cn3)ccc2F)N=C(N)[C@@]2(CF)CC[C@@H]1S2(=O)=O [Example 132]", "Unit tag": "nM", "IC50": 38}
{"Compound": "CCCOc1cnc(/C(F)=C/c2ccc(F)c([C@@]3(C)N=C(N)[C@@]4(CF)CC[C@@H]3S4(=O)=O)c2)cn1 [Example 135]", "Unit tag": "nM", "IC50": 86}
{"Compound": "CC1(C)C(N)=N[C@](C)(c2cc(/C=C(\\F)c3cnc(C#N)cn3)ccc2F)CS1(=O)=O [Example 170]", "Unit tag": "nM", "IC50": 2}
{"Compound": "CN1C(N)=N[C@](C)(c2cc(/C=C(\\F)c3cnc(Cl)cn3)ccc2F)CS1(=O)=O [Example 111]", "Unit tag": "nM", "IC50": 7}

1 = CC#CCOc1cnc(/C(F)=C/c2ccc(F)c([C@]3(C)CS(=O)(=O)C(C)(C)C(N)=N3)c2)cn1 [Example 154]
2 = CN1C(N)=N[C@](C)(c2cc(/C=C(\F)c3cnc(OCC(F)(F)F)cn3)ccc2F)CS1(=O)=O [Example 117]
3 = Cc1noc(COc2cnc(/C(F)=C/c3ccc(F)c([C@]4(C)CS(=O)(=O)N(C)C(N)=N4)c3)cn2)n1 [Example 146]
Please produce an ascending ranking of these compounds based on IC50. Output spec: a listing of the labels in the requested order. 1, 3, 2
(1: 1 nM, 3: 3 nM, 2: 23 nM)

====

- Tested on: BACE1 (Homo sapiens (Human), UniProt P56817)
- Assay procedure: In vitro BACE1 cell-based assay (Aβ40 in conditioned medium of cells stably expressing APP, HTRF)
- Applied conditions: Aβ40 in conditioned media after 24 h incubation
- Sequence (P56817 46-501, species assumed): as the sequence (P56817 46-501) above
Where a name gives a salt, the structure may show the parent alone.
Test readout: IC50 (nM)

// below: answered compounds
{"Compound": "CN1C(N)=N[C@](C)(c2cc(/C=C(\\F)c3ccc(Br)cn3)ccc2F)CS1(=O)=O", "Tested on": "BACE1 (Homo sapiens (Human), UniProt P56817)", "Unit tag": "nM", "IC50": 28}
{"Compound": "CN1C(N)=N[C@](C)(c2cc(/C=C(\\F)c3cnc(Cl)cn3)ccc2F)C(C)(C)S1(=O)=O", "Tested on": "BACE1 (Homo sapiens (Human), UniProt P56817)", "Unit tag": "nM", "IC50": 318}
{"Compound": "C[C@@]1(c2cc(/C=C(\\F)c3ccc(Cl)cn3)ccc2F)CS(=O)(=O)C2(CCC2)C(N)=N1", "Tested on": "BACE1 (Homo sapiens (Human), UniProt P56817)", "Unit tag": "nM", "IC50": 472}
{"Compound": "CN1C(N)=N[C@](C)(c2cc(/C=C(\\F)c3nc(C#N)cs3)ccc2F)CS1(=O)=O", "Tested on": "BACE1 (Homo sapiens (Human), UniProt P56817)", "Unit tag": "nM", "IC50": 38}
{"Compound": "COC[C@H](C)Oc1cnc(/C(F)=C/c2ccc(F)c([C@]3(C)CS(=O)(=O)N(C)C(N)=N3)c2)cn1", "Tested on": "BACE1 (Homo sapiens (Human), UniProt P56817)", "Unit tag": "nM", "IC50": 11}

1 = CC1(C)C(N)=N[C@](C)(c2cc(/C=C(\F)c3cnc(OCC4CCCCC4)cn3)ccc2F)CS1(=O)=O
2 = CC1(C)C(N)=N[C@](C)(c2cc(/C=C(\F)c3cnc(OCC4CCCC4)cn3)ccc2F)CS1(=O)=O
Which entry has a larger number for IC50, 1 or 2 ? Pick one and reply with its label. 1

a = CN1C(N)=N[C@](C)(c2cc(/C=C(\F)c3ccc(C#N)cn3)ccc2F)C(C)(C)S1(=O)=O
b = C[C@H]1COc2cnc(/C(F)=C/c3ccc(F)c([C@]4(C)CS(=O)(=O)N(C)C(N)=N4)c3)nc2O1
c = CN1C(N)=N[C@](C)(c2cc(/C=C(\F)c3ccc(F)cn3)ccc2F)CS1(=O)=O
Sort the 3 compounds by IC50; largest first, smallest last. Response format: the labels, sorted as the prompt asks. b, c, a
(b: 410 nM, c: 67 nM, a: 26 nM)

P = CC1(C)C(N)=N[C@](C)(c2cc(/C=C(\F)c3cnc(OCc4ccccc4)cn3)cnc2F)CS1(=O)=O
Q = C[C@]1(c2cc(/C=C(\F)c3cnc(OCC(F)F)cn3)ccc2F)N=C(N)[C@@]2(CF)CC[C@@H]1S2(=O)=O
R = C#C[C@H](C)Oc1cnc(/C(F)=C/c2cc(F)c(F)c([C@]3(C)CS(=O)(=O)N(C)C(N)=N3)c2)cn1 [Example 167, hydrochloride]
S = CN1C(N)=N[C@](C)(c2cc(/C=C(\F)c3ccc(OC(F)(F)F)cn3)ccc2F)CS1(=O)=O
List items by IC50 in falling order. List the labels, following the order given in the request. P, Q, S, R
(P: 2520 nM, Q: 318 nM, S: 33 nM, R: 11 nM)
